assay: Inhibition of NS5A in HuH7 cell infected HCV genotype 1a H77 assessed as decrease in viral replication after 3 days in presence of 40% human plasma by luciferase reporter gene assay
recorded metric: EC50 (nM)
Dear colleague, please return just the value in nM, with no unit written.

# EC50 lookup, item `COC(=O)N[C@H](C(=O)N1CCC[C@H]1C(=O)Nc1ccc([C@H]2CC[C@H](c3ccc(NC(=O)[C@@H]4CCCN4C(=O)[C@@H](NC(=O)OC)C(C)C)cc3)N2c2ccc(C(C)(C)C)cc2)cc1)C(C)C`
0.986

Input `COC(=O)N[C@H](C(=O)N1CCC[C@H]1c1nc2ccc([C@H]3CC[C@H](c4ccc5nc([C@@H]6CCCN6C(=O)[C@@H](NC(=O)OC)C(C)C)[nH]c5c4)N3c3ccc(N4CCOCC4)cc3)cc2[nH]1)C(C)C`
0.902

Input `COC(=O)N[C@H](C(=O)N1CCC[C@H]1c1nc2ccc([C@H]3CC[C@H](c4ccc5nc([C@@H]6CCCN6C(=O)[C@@H](NC(=O)OC)C(C)C)[nH]c5c4)N3c3cc(Cl)c(N4CCCCC4)c(Cl)c3)cc2[nH]1)C(C)C`
0.213

Input `COC(=O)N[C@H](C(=O)N1CCC[C@H]1c1nc2ccc([C@H]3CC[C@H](c4ccc5nc([C@@H]6CCCN6C(=O)[C@@H](NC(=O)OC)C(C)C)[nH]c5c4)N3c3ccc(Cl)cc3)cc2[nH]1)C(C)C`
0.24

Input `COC(=O)N[C@H](C(=O)N1CCC[C@H]1c1nc2cc([C@H]3CC[C@H](c4ccc5[nH]c([C@@H]6CCCN6C(=O)[C@@H](NC(=O)OC)C(C)C)nc5c4)N3c3cc(F)c(N4CCCCC4)c(F)c3)ccc2[nH]1)C(C)C`
0.151

Input `COC(=O)N[C@H](C(=O)N1CCC[C@H]1c1nc2cc(F)c([C@H]3CC[C@H](c4cc5[nH]c([C@@H]6CCCN6C(=O)[C@@H](NC(=O)OC)C(C)C)nc5cc4F)N3c3cc(F)c(N4CCC(c5ccc(F)cc5)CC4)c(F)c3)cc2[nH]1)C(C)C`
0.07

Input `COC(=O)N[C@H](C(=O)N1CCC[C@H]1C(=O)Nc1ccc([C@@H]2CC[C@@H](c3ccc(NC(=O)[C@@H]4CCCN4C(=O)[C@@H](NC(=O)OC)C(C)C)cc3)N2c2ccc(C(C)(C)C)cc2)cc1)C(C)C`
0.186

Input `COC(=O)N[C@H](C(=O)N1CCC[C@H]1c1nc2cc(F)c([C@H]3CC[C@H](c4cc5[nH]c([C@@H]6CCCN6C(=O)[C@@H](NC(=O)OC)[C@@H](C)OC)nc5cc4F)N3c3cc(F)c(N4CCC(c5ccccc5)CC4)c(F)c3)cc2[nH]1)[C@@H](C)OC`
0.043

Input `COC(=O)N[C@H](C(=O)N1CCC[C@H]1c1nc2cc(F)c([C@H]3CC[C@H](c4cc5[nH]c([C@@H]6CCCN6C(=O)[C@@H](NC(=O)OC)C6CCOCC6)nc5cc4F)N3c3cc(F)c(N4CCC(c5ccc(F)cc5)CC4)c(F)c3)cc2[nH]1)C1CCOCC1`
0.22

Input `COC(=O)N[C@H](C(=O)N1CCC[C@H]1c1nc2cc(F)c([C@H]3CC[C@H](c4cc5[nH]c([C@@H]6CCCN6C(=O)[C@@H](NC(=O)OC)C6CCOCC6)nc5cc4F)N3c3cc(F)c(N4CCC(c5ccccc5)CC4)c(F)c3)cc2[nH]1)C1CCOCC1`
0.136

Input `COC(=O)N[C@H](C(=O)N1CCC[C@H]1c1nc2ccc([C@H]3CC[C@H](c4ccc5nc([C@@H]6CCCN6C(=O)[C@@H](NC(=O)OC)C(C)C)[nH]c5c4)N3c3cc(F)c(N4CCC(c5ccccc5)CC4)c(F)c3)cc2[nH]1)C(C)C`
0.076

Input `COC(=O)N[C@H](C(=O)N1CCC[C@H]1c1nc2ccc([C@H]3CC[C@H](c4ccc5nc([C@@H]6CCCN6C(=O)[C@@H](NC(=O)OC)C(C)C)[nH]c5c4)N3c3ccc(C(C)(C)C)cc3)cc2[nH]1)C(C)C`
0.148

Input `COC(=O)N[C@H](C(=O)N1CCC[C@H]1c1nc2ccc([C@H]3CC[C@H](c4ccc5nc([C@@H]6CCCN6C(=O)[C@@H](NC(=O)OC)C(C)C)[nH]c5c4)N3c3ccc(N4CCC(c5ccccc5)CC4)cc3)cc2[nH]1)C(C)C`
1.51

Input `COC(=O)N[C@H](C(=O)N1CCC[C@H]1c1nc2ccc([C@H]3CC[C@H](c4ccc5nc([C@@H]6CCCN6C(=O)[C@@H](NC(=O)OC)C(C)C)[nH]c5c4)N3c3cc(F)c(N4CCC(c5ccc(F)cc5)CC4)c(F)c3)cc2[nH]1)C(C)C`
0.078

Input `COC(=O)N[C@H](C(=O)N1CCC[C@H]1c1nc2cc([C@H]3CC[C@H](c4cc5nc([C@@H]6CCCN6C(=O)[C@@H](NC(=O)OC)[C@@H](C)OC)[nH]c5cc4F)N3c3cc(F)c(N4CCC(c5ccc(F)cc5)CC4)c(F)c3)c(F)cc2[nH]1)[C@@H](C)OC`
0.064

Input `COC(=O)N[C@H](C(=O)N1CCC[C@H]1c1nc2ccc([C@H]3CC[C@H](c4ccc5nc([C@@H]6CCCN6C(=O)[C@@H](NC(=O)OC)C(C)C)[nH]c5c4)N3c3ccc(F)cc3)cc2[nH]1)C(C)C`
0.49

Input `COC(=O)N[C@H](C(=O)N1CCC[C@H]1c1nc2ccc([C@H]3CC[C@H](c4ccc5nc([C@@H]6CCCN6C(=O)[C@@H](NC(=O)OC)C(C)C)[nH]c5c4)N3c3ccc(Oc4ccccc4)cc3)cc2[nH]1)C(C)C`
0.155
